target: ligand binding domain of the estrogen receptor alpha chain (ERαLBD) (Homo sapiens); construct: expressed in transfected cells; host or cells: Huh-7 human hepatoma cells, transient transfection with FuGENE 6; assay: ER agonist cell assay (ERα), Huh-7 co-transfection, luciferase; assay type: cell-based; details: percent of the maximum estradiol fold change; Huh-7, pG5luc and ERαLBD
measurement_name: ERα % of Max E2 Response (%)
Quick reminder: number only, in %, skip the unit.

Reported ERα % of Max E2 Response for Oc1ccc(-c2noc(C3(c4nnc(-c5ccccc5O)o4)CC3)c2-c2ccccc2)cc1 was 21.9

Reported ERα % of Max E2 Response for Cl.Oc1ccc(-c2noc(C3(CNc4ccc5c(c4)CCC5)CC3)c2-c2ccccc2)cc1 was 21

The recorded ERα % of Max E2 Response for COc1ncccc1OCC1(c2onc(-c3ccc(O)cc3)c2-c2ccccc2)CC1 is 19

ERα % of Max E2 Response reported for this compound CCOc1ccc(-c2nnc(C3(c4onc(-c5ccc(O)cc5)c4-c4ccccc4)CC3)o2)cc1 : 22.3

Data point: CNCC1(c2onc(-c3ccc(O)cc3)c2-c2ccccc2)CC1 ; ERα % of Max E2 Response = 10.2

// field: ERα % of Max E2 Response; key: C[C@@H](O)C1(c2onc(-c3ccc(O)cc3)c2-c2ccccc2)CC1 ; value = 106

Input CCCC(=O)OCC1(c2onc(-c3ccc(O)cc3)c2-c2ccccc2)CC1 . Output ERα % of Max E2 Response: 59.9

Reported ERα % of Max E2 Response ( Oc1ccc(-c2nnc(C3(c4onc(-c5ccc(O)cc5)c4-c4ccccc4)CC3)o2)cc1 ) = 24.4

---

biological target: ligand binding domain of the estrogen receptor beta chain (ERβLBD) that contained a point mutation at amino acid residue 418 (pm418) (Homo sapiens); assay: ER agonist cell assay (ERβ), Huh-7 co-transfection, luciferase; format: cell-based; conditions: percent of the maximum estradiol fold change; Huh-7, pG5luc and ERβLBD(pm418)
For each entry below, report its ERβ % of Max E2 Response value.
Give just the numeric value; % need not be written.

Consider Oc1ccc(-c2noc(C3(C(O)(C4CC4)C4CC4)CC3)c2-c2ccccc2)cc1 . Its measured ERβ % of Max E2 Response is 0.679

Query CCCC(O)C1(c2onc(-c3ccc(O)cc3)c2-c2ccccc2)CC1 (racemic) yields ERβ % of Max E2 Response of 15.6

---

target: ligand binding domain of the estrogen receptor alpha chain (ERαLBD) (Homo sapiens, UniProt P03372); construct: expressed in transfected cells; host or cells: Huh-7 human hepatoma cells, transient transfection with FuGENE 6; experiment: ER agonist cell assay (ERα), Huh-7 co-transfection, luciferase; format: cell-based; settings: percent of the maximum estradiol fold change; Huh-7, pG5luc and ERαLBD
Sequence (P03372 311-547 limits assumed): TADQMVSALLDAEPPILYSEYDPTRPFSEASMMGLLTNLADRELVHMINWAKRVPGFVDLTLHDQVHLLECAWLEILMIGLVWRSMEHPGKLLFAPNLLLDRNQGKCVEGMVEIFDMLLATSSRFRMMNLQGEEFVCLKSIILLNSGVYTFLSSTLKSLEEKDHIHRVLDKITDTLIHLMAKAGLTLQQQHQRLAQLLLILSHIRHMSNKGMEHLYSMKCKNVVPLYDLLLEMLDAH
Label satisfied when ERα % of Max E2 Response >= 30%; otherwise not satisfied.

q: Say whether CCOc1ccccc1OCC1(c2onc(-c3ccc(O)cc3)c2-c2ccccc2)CC1 shows ERα % of Max E2 Response of 30% or more.
a: not satisfied

q: Is ERα % of Max E2 Response at least 30%? Consider CC(=O)C1(c2onc(-c3ccc(O)cc3)c2-c2ccccc2)CC1
a: satisfied

q: Is ERα % of Max E2 Response for CCC(=O)OCC1(c2onc(-c3ccc(O)cc3)c2-c2ccccc2)CC1 at or above 30%?
a: satisfied

q: Is ERα % of Max E2 Response for CC[C@@H](NCC1(c2onc(-c3ccc(O)cc3)c2-c2ccccc2)CC1)c1ccccc1 at or above 30%?
a: not satisfied

q: Reported ERα % of Max E2 Response at or above 30%? CCOC(=O)C1(c2onc(-c3ccc(O)c(F)c3)c2-c2ccccc2)CC1
a: not satisfied

q: State whether the measured ERα % of Max E2 Response reaches 30%, counting equality as reaching it, for Oc1ccc(-c2noc(C3(COc4c(F)cccc4OC(F)(F)F)CC3)c2-c2ccccc2)cc1
a: not satisfied

q: Determine whether this molecule has ERα % of Max E2 Response no lower than 30%: O=C(OC1CCCC1)C1(c2onc(-c3ccc(O)cc3)c2-c2ccccc2)CC1
a: not satisfied

q: Does COCC1(c2onc(-c3ccc(O)cc3)c2-c2ccccc2)CC1 have a reported ERα % of Max E2 Response of at least 30%?
a: satisfied

Hey, just so you know, these numbers are from patent US7470715B2.
